- MEASUREMENT TARGET: Human CD3eg linker (human)
- Sequence (chain, as listed by the source limits assumed): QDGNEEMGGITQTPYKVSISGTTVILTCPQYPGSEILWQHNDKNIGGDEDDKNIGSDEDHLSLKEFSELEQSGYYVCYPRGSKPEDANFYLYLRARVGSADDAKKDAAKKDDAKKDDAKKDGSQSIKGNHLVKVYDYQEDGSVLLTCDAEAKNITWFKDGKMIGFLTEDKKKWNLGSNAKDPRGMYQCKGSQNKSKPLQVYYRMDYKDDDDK
- METHOD NOTES: SPR; fold vs parent H183/L072
PROPERTY NAME: fold change of affinity (fold)
Kindly answer with a numeric value in fold, unit omitted.

H183/L072 VL H34F (antibody, name in Kabat numbering, V domains shown) VH: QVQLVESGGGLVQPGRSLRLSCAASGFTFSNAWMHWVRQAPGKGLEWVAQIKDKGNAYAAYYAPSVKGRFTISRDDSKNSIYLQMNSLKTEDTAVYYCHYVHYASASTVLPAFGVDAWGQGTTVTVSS VL: DIVMTQSPLSLPVTPGEPASISCQASQELVHMNRNTYLFWYQQKPGQAPRLLIYKVSNRFPGVPDRFSGSGSGTDFTLKISRVEAEDVGVYYCAQGTSVPFTFGQGTKLEIK
0
H183/L072 VL R29P (antibody, name in Kabat numbering, V domains shown) VH: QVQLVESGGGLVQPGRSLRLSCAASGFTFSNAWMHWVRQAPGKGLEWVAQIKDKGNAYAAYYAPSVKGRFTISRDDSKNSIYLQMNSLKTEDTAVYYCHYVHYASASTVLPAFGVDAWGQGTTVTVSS VL: DIVMTQSPLSLPVTPGEPASISCQASQELVHMNPNTYLHWYQQKPGQAPRLLIYKVSNRFPGVPDRFSGSGSGTDFTLKISRVEAEDVGVYYCAQGTSVPFTFGQGTKLEIK
0

The record that follows has no fold change of affinity shown yet.
Q) Please give the measured fold change of affinity for this binder: H183/L072 VL H27dR (antibody, name in Kabat numbering, V domains shown) VH: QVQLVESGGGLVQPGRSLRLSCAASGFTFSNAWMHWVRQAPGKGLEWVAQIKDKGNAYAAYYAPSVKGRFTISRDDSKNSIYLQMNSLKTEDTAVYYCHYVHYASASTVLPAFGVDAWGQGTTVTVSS VL: DIVMTQSPLSLPVTPGEPASISCQASQELVRMNRNTYLHWYQQKPGQAPRLLIYKVSNRFPGVPDRFSGSGSGTDFTLKISRVEAEDVGVYYCAQGTSVPFTFGQGTKLEIK
A) 0
